assay: Drug-drug interaction study with itraconazole; format: in vivo, humans; conditions: both sexes, human, plasma, oral; Etrumadenant 150 mg + Itraconazole; geometric mean

{"SMILES_NOTATION": "Cc1c(C#N)cccc1-c1cc(-c2cn(Cc3cccc(C(C)(C)O)n3)nn2)nc(N)n1", "AUC(0-t) (ng·h/mL)": 59400}

----------
assay: Drug-drug interaction study with itraconazole; assay type: in vivo, humans; settings: both sexes, human, plasma, oral; Etrumadenant 150 mg + Itraconazole; arithmetic mean ± SD; read-out: t½ (converted)

{"SMILES_NOTATION": "Cc1c(C#N)cccc1-c1cc(-c2cn(Cc3cccc(C(C)(C)O)n3)nn2)nc(N)n1", "UNIT_INFO": "h", "half-life": 28.7}

----------
assay: Drug-drug interaction study with itraconazole; type: in vivo, humans; details: both sexes, human, plasma, oral; Etrumadenant 150 mg + Itraconazole; median
OBSERVED_PROPERTY: Tmax (h)

{"MOLECULE": "Cc1c(C#N)cccc1-c1cc(-c2cn(Cc3cccc(C(C)(C)O)n3)nn2)nc(N)n1 [Etrumadenant]", "OBSERVED_VALUE": 1.52}

----------
test: Drug-drug interaction study with itraconazole; format: in vivo, humans; settings: both sexes, human, plasma, oral; Etrumadenant 150 mg + Itraconazole; geometric mean
OBSERVED_PROPERTY: Cmax (ng/mL)

{"SMILES_NOTATION": "Cc1c(C#N)cccc1-c1cc(-c2cn(Cc3cccc(C(C)(C)O)n3)nn2)nc(N)n1", "OBSERVED_VALUE": 3530}

----------
test: Drug-drug interaction study with itraconazole; type: in vivo, humans; details: both sexes, human, plasma, oral, 150 mg, Etrumadenant Alone; geometric mean
OBSERVED_PROPERTY: AUC(0-t) (ng·h/mL)

{"SMILES_NOTATION": "Cc1c(C#N)cccc1-c1cc(-c2cn(Cc3cccc(C(C)(C)O)n3)nn2)nc(N)n1", "UNIT_INFO": "ng·h/mL", "OBSERVED_VALUE": 36500}

----------
experiment: Drug-drug interaction study with itraconazole; format: in vivo, humans; conditions: both sexes, human, plasma, oral; Etrumadenant 150 mg + Itraconazole; geometric mean

{"SMILES_NOTATION": "Cc1c(C#N)cccc1-c1cc(-c2cn(Cc3cccc(C(C)(C)O)n3)nn2)nc(N)n1", "AUC(0-inf) [ng·h/mL]": 62600}

----------
experiment: Drug-drug interaction study with itraconazole; assay type: in vivo, humans; details: both sexes, human, plasma, oral; Etrumadenant Alone, 150 mg; median

{"SMILES_NOTATION": "Cc1c(C#N)cccc1-c1cc(-c2cn(Cc3cccc(C(C)(C)O)n3)nn2)nc(N)n1", "UNIT_INFO": "h", "Tmax": 1.38}

----------
assay: Drug-drug interaction study with itraconazole; format: in vivo, humans; conditions: both sexes, human, plasma, oral, Etrumadenant 150 mg + Itraconazole 200 mg multiple doses; geometric mean
OBSERVED_PROPERTY: AUC from 0 to 24 h (AUC0-24) (ng·h/mL)

{"COMPOUND": "Cc1c(C#N)cccc1-c1cc(-c2cn(Cc3cccc(C(C)(C)O)n3)nn2)nc(N)n1 [Etrumadenant]", "OBSERVED_PROPERTY": "AUC from 0 to 24 h (AUC0-24)", "OBSERVED_VALUE": 30700}

----------
Assay: Drug-drug interaction study with itraconazole
Type: in vivo, humans
Conditions: both sexes, human, plasma, oral; Etrumadenant Alone, 150 mg; geometric mean
Description: An open-label, fixed-sequence, 2-period drug-drug interaction (DDI) study was designed to evaluate the effect of multiple doses of a strong inhibitor of CYP3A4 and P-gp on the single-dose PK of etrumadenant in humans. […] Participants were housed on Day −1 of Period 1, at the time indicated by the clinical research unit (CRU), until after the 120-hour blood draw and completion of study procedures in Period 2. Safety was monitored throughout the study by repeated clinical and laboratory evaluations. […]
OBSERVED_PROPERTY: AUC(0-inf) (ng·h/mL)

{"COMPOUND": "Cc1c(C#N)cccc1-c1cc(-c2cn(Cc3cccc(C(C)(C)O)n3)nn2)nc(N)n1 [Etrumadenant]", "UNIT_INFO": "ng·h/mL", "OBSERVED_VALUE": 38600}

----------
test: Drug-drug interaction study with itraconazole; type: in vivo, humans; details: both sexes, human, plasma, oral; Etrumadenant 150 mg + Itraconazole; arithmetic mean ± SD; read-out: Vz/F

{"SMILES_NOTATION": "Cc1c(C#N)cccc1-c1cc(-c2cn(Cc3cccc(C(C)(C)O)n3)nn2)nc(N)n1", "UNIT_INFO": "L", "Vd/F": 100}

----------
test: Drug-drug interaction study with itraconazole; type: in vivo, humans; settings: both sexes, human, plasma, oral; Etrumadenant Alone, 150 mg; geometric mean

{"SMILES_NOTATION": "Cc1c(C#N)cccc1-c1cc(-c2cn(Cc3cccc(C(C)(C)O)n3)nn2)nc(N)n1", "UNIT_INFO": "µg/mL", "Cmax": 3}

----------
experiment: IV reference AUClast in beagle dogs; settings: dog, in vivo, IV at 5 mg/kg

{"SMILES_NOTATION": "Cc1c(C#N)cccc1-c1cc(-c2cn(Cc3cccc(C(C)(C)O)n3)nn2)nc(N)n1", "AUC(0-t) [ng·h/mL]": 25100}
